// provenance: patent US20190202925A1

Could you please report measured koff for the items listed next?
Molecular target: T1, monomeric human TNFR2 extracellular domain (human, UniProt P20333 23-257)
T1 construct: extracellular domain; Analyte in the Octet experiments; also called human TNFR2 ECD
T1 sequence (looked up): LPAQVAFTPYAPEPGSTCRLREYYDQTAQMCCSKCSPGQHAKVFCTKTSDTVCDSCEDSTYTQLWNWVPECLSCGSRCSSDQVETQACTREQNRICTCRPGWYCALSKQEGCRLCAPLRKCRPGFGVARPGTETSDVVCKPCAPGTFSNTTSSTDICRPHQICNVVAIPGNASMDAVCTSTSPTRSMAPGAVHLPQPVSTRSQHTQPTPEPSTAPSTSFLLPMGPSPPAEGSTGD
Assay: BLI (Octet Red 96), CHO supernatant antibody on anti-human Fc biosensor, 100 nM monomeric human TNFR2 ECD, 1:1 model
Answers are plain numbers, in s⁻¹.

{"binder": "hSBT-002b (antibody, V domains shown, Humanized SBT-002; VH fused to human IgG1 Fc null, VL to human Ck; Tested as CHO supernatant) VH: QVTLKESGPALVKPTQTLTLTCTFSGFSLSTSGMGVGWIRQPPGKALEWLAHIWWDDDKFYNPSLKSQLTISKDTSKNQVVLTMTNMDPVDTATYYCARITGTRYFDYWGQGTTVTVSS VL: DVQMTQSPSSLSASVGDRVTITCKASQDINKFIAWYQQKPGKAPKLLIHYTSTLQPGIPSRFSGSGSGTDFTFTISSLQPEDIATYYCLQYGNLWTFGGGTKVEIK", "koff [s⁻¹]": 0.000424}
{"binder": "hSBT-002d (antibody, V domains shown, Humanized SBT-002; VH fused to human IgG1 Fc null, VL to human Ck; Tested as CHO supernatant) VH: QVTLKESGPALVKPTQTLTLTCTFSGFSLSTSGMGVGWIRQPPGKALEWLAHIWWDDDKFYNPSLKSQLTISKDTSKNQVVLTMTNMDPVDTATYYCARITGTRYFDYWGQGTTVTVSS VL: DVQMTQSPSSLSASVGDRVTITCKASQDINKFIAWYQQKPGKAPKLLIHYTSTLQPGIPSRFSGSGSGRDYTFTISSLQPEDIATYYCLQYGNLWTFGGGTKVEIK", "koff [s⁻¹]": 0.000301}

Pending binder:
Inquiry: Respond only with koff recorded for hSBT-002c (antibody, V domains shown, Humanized SBT-002; VH fused to human IgG1 Fc null, VL to human Ck; Tested as CHO supernatant) VH: QVTLKESGPALVKPTQTLTLTCTFSGFSLSTSGMGVGWIRQPPGKALEWLAHIWWDDDKFYNPSLKSRLTISKDTSKNQVVLTMTNMDPVDTATYYCARLTGTRYFDYWGQGTTVTVSS VL: DVQMTQSPSSLSASVGDRVTITCKASQDINKFIAWYQQKPGKAPKLLIHYTSTLQPGIPSRFSGSGSGTDFTFTISSLQPEDIATYYCLQYGNLWTFGGGTKVEIK
Reply text: 0.000446
